Assay: Oral bioavailability in rat at 2 umol/kg, po
Assay type: ADME, organism-based
Details: in vivo
parameter_measured: bioavailability (%)

line_notation	unit_info	val
Cc1nc2nc(C(=O)N3CCOCC3)cn2c(-c2ccc(Cl)cc2Cl)c1CN	%	54
CCn1nccc1NC(=O)c1cn2c(-c3ccc(Cl)cc3Cl)c(CN)c(C)nc2n1	%	64

====

Target: Dipeptidyl peptidase 9 (Homo sapiens)
Sequence (Q86TI2 whole entry): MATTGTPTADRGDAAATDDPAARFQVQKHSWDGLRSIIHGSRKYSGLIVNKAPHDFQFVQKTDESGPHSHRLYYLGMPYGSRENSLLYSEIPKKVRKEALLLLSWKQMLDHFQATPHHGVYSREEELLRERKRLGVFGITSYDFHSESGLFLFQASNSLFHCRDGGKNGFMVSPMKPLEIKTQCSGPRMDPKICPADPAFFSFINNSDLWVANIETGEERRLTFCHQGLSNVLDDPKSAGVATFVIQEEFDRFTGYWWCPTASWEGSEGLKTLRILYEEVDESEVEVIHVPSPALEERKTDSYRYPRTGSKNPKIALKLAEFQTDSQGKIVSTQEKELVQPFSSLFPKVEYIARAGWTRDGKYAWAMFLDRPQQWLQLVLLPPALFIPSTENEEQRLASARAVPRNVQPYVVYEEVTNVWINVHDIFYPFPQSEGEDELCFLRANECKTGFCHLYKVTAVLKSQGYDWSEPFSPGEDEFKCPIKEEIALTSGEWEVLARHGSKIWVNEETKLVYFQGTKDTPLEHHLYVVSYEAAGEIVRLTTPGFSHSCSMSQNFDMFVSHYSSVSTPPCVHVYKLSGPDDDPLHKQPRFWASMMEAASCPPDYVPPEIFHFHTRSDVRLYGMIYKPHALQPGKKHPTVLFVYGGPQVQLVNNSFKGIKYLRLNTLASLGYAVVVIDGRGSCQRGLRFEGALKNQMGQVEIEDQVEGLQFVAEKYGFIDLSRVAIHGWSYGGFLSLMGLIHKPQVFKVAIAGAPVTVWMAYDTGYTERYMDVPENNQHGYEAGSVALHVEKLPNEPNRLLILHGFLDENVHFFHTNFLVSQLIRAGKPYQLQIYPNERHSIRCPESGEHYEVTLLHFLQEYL
parameter_measured: Ki

Lookup: Recall the reported Ki of Cc1nc2nc(C(=O)NC3CCN(C(C)C)CC3)cn2c(-c2ccc(Cl)cc2Cl)c1CN on Dipeptidyl peptidase 9 (Homo sapiens) and write it down.
Found: > 10 µM

====

Target: hERG (KCNH2) (Homo sapiens, UniProt Q12809)
Sequence (Q12809 whole entry): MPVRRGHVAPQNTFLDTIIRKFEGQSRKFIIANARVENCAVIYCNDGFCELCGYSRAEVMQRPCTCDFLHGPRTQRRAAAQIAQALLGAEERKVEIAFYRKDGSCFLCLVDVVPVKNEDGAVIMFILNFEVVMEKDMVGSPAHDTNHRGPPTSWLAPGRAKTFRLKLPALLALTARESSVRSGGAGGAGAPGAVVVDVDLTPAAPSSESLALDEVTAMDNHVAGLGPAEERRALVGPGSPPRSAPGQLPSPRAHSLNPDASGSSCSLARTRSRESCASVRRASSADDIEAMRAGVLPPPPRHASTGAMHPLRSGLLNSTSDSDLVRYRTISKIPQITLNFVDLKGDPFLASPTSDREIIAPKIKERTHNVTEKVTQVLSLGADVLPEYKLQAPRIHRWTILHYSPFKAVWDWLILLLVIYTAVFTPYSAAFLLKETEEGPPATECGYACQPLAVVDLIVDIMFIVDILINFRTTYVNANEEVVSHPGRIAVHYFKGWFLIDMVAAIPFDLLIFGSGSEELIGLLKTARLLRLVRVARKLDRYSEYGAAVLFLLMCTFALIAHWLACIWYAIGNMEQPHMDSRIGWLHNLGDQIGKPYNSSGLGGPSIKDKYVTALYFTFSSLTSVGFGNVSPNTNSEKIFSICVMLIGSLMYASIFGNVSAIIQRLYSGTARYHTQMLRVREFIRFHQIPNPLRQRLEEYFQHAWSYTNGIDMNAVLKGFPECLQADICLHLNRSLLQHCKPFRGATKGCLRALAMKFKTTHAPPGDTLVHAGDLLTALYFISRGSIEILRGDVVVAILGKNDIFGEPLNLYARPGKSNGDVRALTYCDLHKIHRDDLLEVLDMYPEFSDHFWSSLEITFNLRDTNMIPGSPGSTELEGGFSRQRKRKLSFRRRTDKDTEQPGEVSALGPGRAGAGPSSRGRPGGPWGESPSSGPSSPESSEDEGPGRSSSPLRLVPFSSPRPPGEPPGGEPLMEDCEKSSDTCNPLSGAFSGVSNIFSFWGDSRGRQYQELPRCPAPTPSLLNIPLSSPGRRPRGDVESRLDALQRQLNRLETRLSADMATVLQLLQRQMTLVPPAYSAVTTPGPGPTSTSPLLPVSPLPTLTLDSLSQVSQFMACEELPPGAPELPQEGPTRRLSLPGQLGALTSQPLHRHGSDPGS
Assay: Inhibition of human ERG at 10 uM
Entries annotated with measured inhibition at 10 µM
Supply the numeric figure in %, leaving out any unit text.

Consider the reported inhibition at 10 µM for these compounds:
line_notation	val
CCOC(=O)c1cn2c(-c3ccc(Cl)cc3Cl)c(CN)c(C)nc2n1	23
CCn1nccc1NC(=O)c1cn2c(-c3ccc(Cl)cc3Cl)c(CN)c(C)nc2n1	31

Lookup: Quick one: give measured inhibition at 10 µM for Cc1nc2nc(-c3ccccc3)cn2c(-c2ccc(Cl)cc2Cl)c1CN
Found: 74

Origin of values: ChEMBL document CHEMBL1212920
